Hello, the source for this data is ChEMBL document CHEMBL1150763, in case you need it.

# method: Bioavailability in cynomolgus monkey in fed state at 3 mg/kg, po
# Assay type: ADME, organism-based, Macaca fascicularis
# conditionsUsed: in vivo

>  <smilesStructure>
Cc1ncc2n1C(=O)N(C1CCN(C(=O)CCS(=O)(=O)c3ccc4cc(Cl)ccc4c3)CC1)C2

>  <outputUnit>
%

>  <bioavailability>
46

$$$$

* * *

# system: Tissue-type plasminogen activator (Homo sapiens, UniProt P00750)
# Sequence (P00750 whole entry): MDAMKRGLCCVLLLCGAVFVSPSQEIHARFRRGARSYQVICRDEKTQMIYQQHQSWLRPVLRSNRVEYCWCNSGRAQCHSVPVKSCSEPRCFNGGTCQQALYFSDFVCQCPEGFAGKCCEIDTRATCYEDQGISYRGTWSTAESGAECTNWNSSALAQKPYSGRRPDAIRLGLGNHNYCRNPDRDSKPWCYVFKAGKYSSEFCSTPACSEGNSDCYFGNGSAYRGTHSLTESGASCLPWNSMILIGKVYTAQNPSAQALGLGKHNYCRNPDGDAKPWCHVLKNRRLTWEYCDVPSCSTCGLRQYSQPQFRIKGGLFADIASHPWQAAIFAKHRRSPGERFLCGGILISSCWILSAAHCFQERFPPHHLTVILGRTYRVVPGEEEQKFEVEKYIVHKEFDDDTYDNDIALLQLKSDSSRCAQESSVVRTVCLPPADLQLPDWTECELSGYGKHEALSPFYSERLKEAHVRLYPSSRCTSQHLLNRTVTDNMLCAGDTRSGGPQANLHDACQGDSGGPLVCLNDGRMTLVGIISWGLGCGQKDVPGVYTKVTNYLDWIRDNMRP
# method: Inhibition of tPA
pKi: −log10 of the molar value.
valueType: pKi

>  <smilesStructure>
Cc1ncc2n1C(=O)N(C1CCN(C(=O)CCS(=O)(=O)c3ccc4cc(Cl)ccc4c3)CC1)C2

>  <valueType>
pKi

>  <reportedMeasurement>
< 4.22

$$$$
